Catalogue of koff values
- Measured On: T1, In house human CD8A-Fc (human, UniProt P01732 22-182, limits assumed)
- T1 construct: Captured on goat anti-human Fc on a ProteOn GLC chip; also called hCD8A-Fc; recombinant human CD8 alpha; not shown: linker with flag (and polyhistidine) tag and Fc of human IgG1
- Assay Info: SPR (ProteOn), captured hCD8A-Fc

Look over these answered cases.
Binder	Meas Value
P282FR9P1361_D3 (designed binder, FN3 domain) LPAPKNLVVSRVTEDSARLSWTAPDAAFDSFDIWYAEYGYPGEAIVLTVPGSERSYDLTGLNPGTEYDVAISGVKGGPRSYPLSAIFTT	0.00502 s⁻¹
P282FR9P1361_H5 (designed binder, FN3 domain) LPAPKNLVVSRVTEDSARLSWTAPDAAFDSFDIWYAEYGYPGEAIVLTVPGSERSYDLTGLKPGTEYDVAISGVKGGPRSYPLSAIFTT	0.00577 s⁻¹
P282DR9P1359_C11 (designed binder, FN3 domain) LPAPKNLVVSRVTEDSARLSWTAPDAAFDSFKIAYPEFPPPGEAIVLTVPGSERSYDLTGLKPGTEYYVIIIGVKGGTDSWPLSAIFTT	0.00216 s⁻¹

With those in mind, consider the next binder.
Which value of koff has been reported for P283AR9P1362_A3 (designed binder, FN3 domain) LPAPKNLVVSRVTEDSARLSWKRIDSPFDSFLIQYQESEKVGEAIVLTVPGSERSYDLTGLKPGTEYTVSIYGVDVKYDIDSRPISSNPLSAIFTT in the records?
0.00153 s⁻¹

Numbers sourced from patent US20210032312A1.
